B1: POU domain, class 3, transcription factor 4, residues 280 to 335; numbered along this chain, P49335 (parent)
chain: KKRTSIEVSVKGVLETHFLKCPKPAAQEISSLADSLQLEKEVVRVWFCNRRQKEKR

Variants of: B1
Experiment: abundance fitness (aPCA) (normalised: wild type 0, dead -1); higher = more abundant; growth selection in yeast, the domain comes from the species named
Details: Homo sapiens
The threshold is inclusive: abundance fitness of exactly -0.6 counts as Fulfilled; values below receive Not fulfilled.

Previously resolved entries follow.
>  <PRIMARY_SEQUENCE>
KKRTSIEVSVKGVLETHFLKCPKPAAQEISSLADSLQLEKEVVRVWFCNRPQKEKR [R51P]

>  <GROUP_LABEL>
Not fulfilled

$$$$
>  <PRIMARY_SEQUENCE>
KKSTSIEVSVKGVLETHFLKCPKPAAQEISSLADSLQLEKEVVRVWFCNRRQKEKR [R3S]

>  <GROUP_LABEL>
Fulfilled

$$$$
>  <PRIMARY_SEQUENCE>
KKRTSCEVSVKGVLETHFLKCPKPAAQEISSLADSLQLEKEVVRVWFCNRRQKEKR [I6C]

>  <GROUP_LABEL>
Not fulfilled

$$$$
>  <PRIMARY_SEQUENCE>
KKRTSIMVSVKGVLETHFLKCPKPAAQEISSLADSLQLEKEVVRVWFCNRRQKEKR [E7M]

>  <GROUP_LABEL>
Fulfilled

$$$$
>  <PRIMARY_SEQUENCE>
KKRTSIEVSVKGVLETHFLKCPKPAATEISSLADSLQLEKEVVRVWFCNRRQKEKR [Q27T]

>  <GROUP_LABEL>
Fulfilled

$$$$

query: Does the variant KKRTSIEVSVKGVLETHFLKCPKPAAQEISSNADSLQLEKEVVRVWFCNRRQKEKR [L32N] have recorded abundance fitness that is -0.6 or more?
result: Not fulfilled

query: Does the variant KTRTSIEVSVKGVLETHFLKCPKPAAQEISSLADSLQLEKEVVRVWFCNRRQKEKR [K2T] have recorded abundance fitness that is -0.6 or more?
result: Fulfilled

query: Does the variant KKRTSIEVSVKGVLETHFLKCPKPAAQEISSLADSLQLRKEVVRVWFCNRRQKEKR [E39R] have recorded abundance fitness that is -0.6 or more?
result: Fulfilled

query: Does the variant KKRTSIEVSVKGVLETHFLKCPKPAAQEISSLADSLQLEKEVVRNWFCNRRQKEKR [V45N] have recorded abundance fitness that is -0.6 or more?
result: Fulfilled

query: Does the variant KKRTSIEVSVKGVLETHFLKCPKPAAQEISSLADSLQLEKEVVRVWVCNRRQKEKR [F47V] have recorded abundance fitness that is -0.6 or more?
result: Not fulfilled

query: Does the variant KKRTSIEVSVKGVLETHFLLCPKPAAQEISSLADSLQLEKEVVRVWFCNRRQKEKR [K20L] have recorded abundance fitness that is -0.6 or more?
result: Fulfilled

query: Does the variant KKRTSIEVSVKGVLETHFLKCPKPAAQEISSLADSLQLEKEVVRMWFCNRRQKEKR [V45M] have recorded abundance fitness that is -0.6 or more?
result: Fulfilled

query: Does the variant KKRTSIEVSVKGVLETHFLKCPKPAAQESSSLADSLQLEKEVVRVWFCNRRQKEKR [I29S] have recorded abundance fitness that is -0.6 or more?
result: Not fulfilled

query: Does the variant KKRTSIEVSVKGVLETHFLKCPKPAAQEISSLADSLQLEKEVVRVWFCGRRQKEKR [N49G] have recorded abundance fitness that is -0.6 or more?
result: Not fulfilled

query: Does the variant KKRTSIEVSVKGVLETHFLKCPKPAAQEISSLADSLQMEKEVVRVWFCNRRQKEKR [L38M] have recorded abundance fitness that is -0.6 or more?
result: Fulfilled

query: Does the variant KKRTSIEVSVKGGLETHFLKCPKPAAQEISSLADSLQLEKEVVRVWFCNRRQKEKR [V13G] have recorded abundance fitness that is -0.6 or more?
result: Not fulfilled

query: Does the variant KKRTSIEVSVKGVLETHFLCCPKPAAQEISSLADSLQLEKEVVRVWFCNRRQKEKR [K20C] have recorded abundance fitness that is -0.6 or more?
result: Not fulfilled

query: Does the variant KKRTSIEVSVKGVLETHFLKCPKPAFQEISSLADSLQLEKEVVRVWFCNRRQKEKR [A26F] have recorded abundance fitness that is -0.6 or more?
result: Fulfilled

query: Does the variant KKRTSIEVSVKGVLETHFAKCPKPAAQEISSLADSLQLEKEVVRVWFCNRRQKEKR [L19A] have recorded abundance fitness that is -0.6 or more?
result: Fulfilled

query: Does the variant KKRTSIEVSVKGVLETHFLKCPKPAAQEISSLADSLQLCKEVVRVWFCNRRQKEKR [E39C] have recorded abundance fitness that is -0.6 or more?
result: Fulfilled

query: Does the variant KKRTSIEVSVKGVLETHFLKCPKPWAQEISSLADSLQLEKEVVRVWFCNRRQKEKR [A25W] have recorded abundance fitness that is -0.6 or more?
result: Not fulfilled

Source listed as the Human Domainome abundance scans (Beltran et al. 2025).
